- system.name: isolated recombinant JAK2 kinase domain (Homo sapiens (Human))
- Sequence (O60674 849-1124): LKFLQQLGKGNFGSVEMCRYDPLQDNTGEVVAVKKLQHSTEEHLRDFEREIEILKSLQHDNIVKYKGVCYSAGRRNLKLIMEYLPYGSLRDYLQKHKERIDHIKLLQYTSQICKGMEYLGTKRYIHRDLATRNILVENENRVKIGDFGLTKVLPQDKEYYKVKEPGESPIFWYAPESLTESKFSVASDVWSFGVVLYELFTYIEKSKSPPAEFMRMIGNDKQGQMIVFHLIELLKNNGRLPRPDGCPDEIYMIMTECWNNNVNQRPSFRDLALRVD
- test.name: JAK2 enzyme assay (Caliper LabChip, Ki)
- Type: biochemical
- run.conditions: isolated recombinant JAK2 kinase domain, 0.2 nM enzyme, ATP 25 μM
Entries and their Ki
Express it in nM; write the number only.

Please review the following examples before continuing.
{"smiles.input": "CN1CCN(C(=O)Cn2cc(Nc3nc4c(N5CC6CCC(C5)N6C(=O)N5CC(O)(C(F)(F)F)C5)cccn4n3)cn2)CC1", "units.of.measure": "nM", "meas.value": 0.3}
{"smiles.input": "CN1CCN(C(=O)Cn2cc(Nc3nc4c(N5CC6CCC(C5)N6C(=O)CC(C)(C)C(F)(F)F)cccn4n3)cn2)CC1", "units.of.measure": "nM", "meas.value": 2.3}

-- ask Item: CN1CCN(C(=O)Cn2cc(Nc3nc4c(N5CC6CCC(C5)N6C(=O)N5CCC(C#N)CC5)cccn4n3)cn2)CC1 Test system: isolated recombinant JAK2 kinase domain (Homo sapiens (Human)) Read-out: Ki Value: ?
-- reply 0.9

Data credit: patent US10189836B2
